assay system: T1, V3-46s Fab
T1 construct: N31S mutant of V3-46; also called V46s; N31S
T1 sequence (VH, as listed by the source, chain 1 of 2): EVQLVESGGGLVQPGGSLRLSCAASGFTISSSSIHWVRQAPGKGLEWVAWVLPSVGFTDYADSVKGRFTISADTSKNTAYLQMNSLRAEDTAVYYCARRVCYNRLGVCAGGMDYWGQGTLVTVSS
T1 sequence (VL, as listed by the source, chain 2 of 2): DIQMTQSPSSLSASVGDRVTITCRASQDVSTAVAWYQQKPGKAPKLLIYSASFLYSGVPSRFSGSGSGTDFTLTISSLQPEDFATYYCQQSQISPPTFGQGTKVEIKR
protocol notes: phage competition ELISA, ECD in solution
value kind: pIC50
Numbers only, as −log10 of the molar value.

Incoming: Find the recorded pIC50 belonging to mouse BR3 extracellular domain (receptor, also called mBR3-ECD; mBR-ECD) MGARRLRVRSQRSRDSSVPTQCNQTECFDPLVRNCVSCELFHTPDTGHTSSLEPGTALQPQEGS and report it.
Outgoing: 8.82
